Hi there, I'd appreciate the recorded IC50 for every entry that follows.
Molecular target: human MGL from HeLa cells (Homo sapiens, UniProt Q99685)
Construct: combining endogenously expressed MGL from HeLa cells with test compounds; endogenous in cells; host or cells: HeLa cells / cell homogenates
Sequence (Q99685 1-303): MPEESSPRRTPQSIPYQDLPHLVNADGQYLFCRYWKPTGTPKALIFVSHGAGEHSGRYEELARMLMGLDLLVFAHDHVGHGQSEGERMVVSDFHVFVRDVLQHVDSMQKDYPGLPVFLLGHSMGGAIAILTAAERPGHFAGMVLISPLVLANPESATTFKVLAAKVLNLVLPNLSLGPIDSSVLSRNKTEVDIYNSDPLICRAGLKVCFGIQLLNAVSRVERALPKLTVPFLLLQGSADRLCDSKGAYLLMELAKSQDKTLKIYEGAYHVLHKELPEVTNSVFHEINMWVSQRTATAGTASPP
Assay: In vitro MGL activity assay: [glycerol-1,3-3H]-oleyl glycerol cleavage by MGL from HeLa cells
Format: biochemical
Settings: 300 nM [Glycerol-1,3-3H]-oleyl glycerol, one hour

Query :: Endpoint output: IC50 of `C[C@H]1c2nn(C)c(-c3ccc4occc4c3)c2CCN1C(=O)c1ccc2ncccc2c1` . Value?
Result :: 17.4 nM

Query :: Consider the compound `C[C@H]1c2nn(C)c(-c3cc(F)c(F)c(F)c3)c2CCN1C(=O)c1nccc2ncncc12` and give its measured IC50.
Result :: 62.2 nM

Query :: Suppose we examine the compound `C[C@H]1c2nn(C)c(-c3cc(F)c(F)c(F)c3)c2CCN1C(=O)c1ccc2nccn2n1` ; what IC50 value has been reported?
Result :: 276 nM

Query :: State the recorded IC50 for this entry: `Cc1cccc2nc(C(F)(F)F)c(C(=O)N3CCc4c(nn(C)c4-c4cc(F)c(F)c(F)c4)[C@@H]3C)n12`
Result :: 20.4 nM

====

Target: human MGL from HeLa cells (Homo sapiens, UniProt Q99685)
Construct: combining endogenously expressed MGL from HeLa cells with test compounds; endogenous in cells; host or cells: HeLa cells / cell homogenates
Sequence (Q99685 1-303): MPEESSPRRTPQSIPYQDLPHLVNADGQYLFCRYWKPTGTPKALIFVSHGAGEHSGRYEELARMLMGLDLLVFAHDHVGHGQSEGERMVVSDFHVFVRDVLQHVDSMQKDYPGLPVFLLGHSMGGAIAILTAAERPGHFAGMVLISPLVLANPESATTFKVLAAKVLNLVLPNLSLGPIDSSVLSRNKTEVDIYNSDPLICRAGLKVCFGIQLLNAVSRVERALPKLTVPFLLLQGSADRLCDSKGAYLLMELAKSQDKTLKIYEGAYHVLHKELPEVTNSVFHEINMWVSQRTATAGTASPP
Experiment: In vitro MGL activity assay: [glycerol-1,3-3H]-oleyl glycerol cleavage by MGL from HeLa cells
Assay type: biochemical
Conditions: 300 nM [Glycerol-1,3-3H]-oleyl glycerol, one hour
Exercise: state measured log10 of IC50 for each of the molecules provided.
# log10 transformed; quantity=IC50; unit=nM

Query :: Test system human MGL from HeLa cells (Homo sapiens, UniProt Q99685); read-out log10 of IC50; what value for C[C@H]1c2nn(C)c(-c3cc(F)c(F)c(F)c3)c2CCN1C(=O)c1cccc2c1OCCN2 [Example 592] ?
Result :: 0.86

Query :: Which log10 of IC50 is reported with human MGL from HeLa cells (Homo sapiens, UniProt Q99685) for this entry: C[C@H]1c2nn(C)c(-c3cc(F)c(F)c(F)c3)c2CCN1C(=O)c1cncc2cn[nH]c12 [Example 434] ?
Result :: 2.44

Query :: Request: log10 of IC50, test system human MGL from HeLa cells (Homo sapiens, UniProt Q99685), entry C[C@H]1c2nn(C)c(-c3cc(F)c(F)c(F)c3)c2CCN1C(=O)c1nn(C)c2cnccc12 [Example 431]
Result :: 1.98

Query :: Form field: log10 of IC50 recorded for C[C@H]1c2nn(C)c(-c3cc(F)c(F)c(F)c3)c2CCN1C(=O)c1cnc2n1CCOC2 [Example 562] with human MGL from HeLa cells (Homo sapiens, UniProt Q99685) (enter value)
Result :: 2.86

Query :: Find log10 of IC50 (human MGL from HeLa cells (Homo sapiens, UniProt Q99685)) for the entry C[C@H]1c2nn(C)c(-c3cc(F)c(F)c(F)c3)c2CCN1C(=O)c1cccc2nncn12 [Example 438]
Result :: 2.71

Query :: What value of log10 of IC50 on human MGL from HeLa cells (Homo sapiens, UniProt Q99685) does C[C@H]1c2nn(C)c(-c3cc(F)c(F)c(F)c3)c2CCN1C(=O)c1nccc2cn[nH]c12 [Example 432] have?
Result :: 2.44

Query :: Form field: log10 of IC50 recorded for C[C@H]1c2nn(C)c(-c3cc(F)c(F)c(F)c3)c2CCN1C(=O)c1ccnc2ncccc12 [Example 491] with human MGL from HeLa cells (Homo sapiens, UniProt Q99685) (enter value)
Result :: 2.15

Query :: Under human MGL from HeLa cells (Homo sapiens, UniProt Q99685): log10 of IC50 value of C[C@H]1c2nn(C)c(-c3cc(F)c(F)c(F)c3)c2CCN1C(=O)c1cnn2c1CCC2 [Example 551] ?
Result :: 2.09

====

biological target: human MGL from HeLa cells (Homo sapiens); construct: combining endogenously expressed MGL from HeLa cells with test compounds; endogenous in cells; host or cells: HeLa cells / cell homogenates; assay: In vitro MGL activity assay: [glycerol-1,3-3H]-oleyl glycerol cleavage by MGL from HeLa cells; assay type: biochemical; settings: 300 nM [Glycerol-1,3-3H]-oleyl glycerol, one hour
I'd appreciate it if you could supply pIC50 values for the items below.
Please keep in mind that pIC50 is minus log10 of the molar concentration; only the number is needed.

Query :: I'd like to know its pIC50. The compound in question is `Cc1cn2c(C(=O)N3CCc4c(nn(C)c4-c4cc(F)c(F)c(F)c4)[C@@H]3C)cccc2n1`
Result :: 6.85

Query :: Given `C[C@H]1c2nn(C)c(-c3cc(F)c(F)c(F)c3)c2CCN1C(=O)c1cnn2c1OCCC2` , state its recorded pIC50.
Result :: 7.24

Query :: Which pIC50 value is on record for `Cc1ccc2cc(C(=O)N3CCc4c(nn(C)c4-c4cc(F)c(F)c(F)c4)[C@@H]3C)ccc2n1` ?
Result :: 7.79

Query :: Request the reported pIC50 associated with `Cc1cccc2ncc(C(=O)N3CCc4c(nn(C)c4-c4cc(F)c(F)c(F)c4)[C@@H]3C)n12`
Result :: 7.84

====

biological target: human MGL from HeLa cells (Homo sapiens); construct: combining endogenously expressed MGL from HeLa cells with test compounds; endogenous in cells; host or cells: HeLa cells / cell homogenates; assay: In vitro MGL activity assay: [glycerol-1,3-3H]-oleyl glycerol cleavage by MGL from HeLa cells; format: biochemical; settings: 300 nM [Glycerol-1,3-3H]-oleyl glycerol, one hour incubation
Kindly supply the reported IC50 values for the records listed here.
Numeric only. Scale: nM

Query :: Endpoint output: IC50 of C[C@H]1c2nn(C)c(-c3cc(F)c(F)c(F)c3)c2CCN1C(=O)c1ccc(-c2cn[nH]c2)cc1 [Example 268] . Value?
Result :: 24.2

Query :: Value lookup for IC50; key = COc1ccnc(C(=O)N2CCc3c(nn(C)c3-c3cc(F)c(F)c(F)c3)[C@@H]2C)c1 [Example 309]
Result :: 219

Query :: Given the compound COc1cncc(C(=O)N2CCc3c(nn(C)c3-c3cc(F)c(F)c(F)c3)[C@@H]2C)c1C [Example 313] , what is its reported IC50?
Result :: 38

Query :: Entry under review: C[C@H]1c2nn(C)c(-c3cc(F)c(F)c(F)c3)c2CCN1C(=O)c1ccccc1-n1cncn1 [Example 279] . Reported IC50?
Result :: 7.34

====

Target: human MGL from HeLa cells (Homo sapiens, UniProt Q99685)
Construct: combining endogenously expressed MGL from HeLa cells with test compounds; endogenous in cells; host or cells: HeLa cells / cell homogenates
Assay: In vitro MGL activity assay: [glycerol-1,3-3H]-oleyl glycerol cleavage by MGL from HeLa cells
Format: biochemical
Conditions: 300 nM [Glycerol-1,3-3H]-oleyl glycerol, one hour
Description: MGL is the predominant hydrolase in HeLa cells/cell homogenates.
Assignment: determine reported pIC50 for the given compounds.
The quantity pIC50 is defined as the negative base-10 logarithm of the molar concentration.

Query :: What measured pIC50 goes with `C[C@H]1c2nn(C)c(-c3cc(F)c(F)c(F)c3)c2CCN1C(=O)c1ncn2ccccc12` ?
Result :: 7.23

Query :: Which measured pIC50 value corresponds to `C[C@H]1c2nn(C)c(-c3cc(F)c(F)c(F)c3)c2CCN1C(=O)c1cncc2c(F)cccc12` ?
Result :: 8.30

Query :: Need pIC50, item `C[C@H]1c2nn(C)c(-c3cc(F)c(F)c(F)c3)c2CCN1C(=O)c1cc2c(cn1)OCCC2`
Result :: 6.62

Query :: // query pIC50 value for entry `COc1nccc(C(=O)N2CCc3c(nn(C)c3-c3ccc(F)c(C)c3)[C@@H]2C)c1C`
Result :: 7.52

Query :: So what's the measured pIC50 for this one? C[C@H]1c2nn(C)c(-c3cc(F)c(F)c(F)c3)c2CCN1C(=O)c1cnn(C)c1C1CC1(F)F (single isomer, unassigned) [Example 338]
Result :: 7.85

Query :: // lookup pIC50 for `Cc1c[nH]c2ncnc(C(=O)N3CCc4c(nn(C)c4-c4cc(F)c(F)c(F)c4)[C@@H]3C)c12`
Result :: 7.50

Query :: What measured pIC50 goes with `Cc1cccc2c(C(=O)N3CCc4c(nn(C)c4-c4cc(F)c(F)c(F)c4)[C@@H]3C)cnn12` ?
Result :: 7.93

Query :: Consider the compound shown here: `C[C@H]1c2nn(C)c(-c3cc(F)c(F)c(F)c3)c2CCN1C(=O)c1ccc2cnccc2c1` What is its recorded pIC50?
Result :: 7.99

Query :: What measured pIC50 goes with `C[C@H]1c2nn(C)c(-c3cncc(OC(F)F)c3)c2CCN1C(=O)c1ccc2ncccc2c1` ?
Result :: 6.40

Query :: Which value of pIC50 has been reported for `Cc1nc(C(=O)N2CCc3c(nn(C)c3-c3cc(F)c(F)c(F)c3)[C@@H]2C)c2ncccn12` in the records?
Result :: 6.28

Query :: Quick check: pIC50 of `COc1ccn2ncc(C(=O)N3CCc4c(nn(C)c4-c4cc(F)c(F)c(F)c4)[C@@H]3C)c2c1` ?
Result :: 8.00

Query :: What value of pIC50 has been recorded for this entry: `C[C@H]1c2nn(C)c(-c3cc(F)c(F)c(F)c3)c2CCN1C(=O)c1ccc2c(ccc[n+]2[O-])c1`
Result :: 6.85

Query :: So what's the measured pIC50 for this one? `C[C@H]1c2nn(C)c(-c3cc(F)c(F)c(F)c3)c2CCN1C(=O)c1cncc2ncccc12`
Result :: 7.52

Query :: Bench note: what pIC50 did `C[C@H]1c2nn(C)c(-c3cc(F)c(F)c(F)c3)c2CCN1C(=O)c1c[nH]c2ncc(F)cc12` show?
Result :: 7.68

Query :: Entry `Cc1nc2ccc(F)cn2c1C(=O)N1CCc2c(nn(C)c2-c2cc(F)c(F)c(F)c2)[C@@H]1C` has what pIC50?
Result :: 7.67
